Target: BRG-1 (Homo sapiens)
Sequence (P51532 whole entry): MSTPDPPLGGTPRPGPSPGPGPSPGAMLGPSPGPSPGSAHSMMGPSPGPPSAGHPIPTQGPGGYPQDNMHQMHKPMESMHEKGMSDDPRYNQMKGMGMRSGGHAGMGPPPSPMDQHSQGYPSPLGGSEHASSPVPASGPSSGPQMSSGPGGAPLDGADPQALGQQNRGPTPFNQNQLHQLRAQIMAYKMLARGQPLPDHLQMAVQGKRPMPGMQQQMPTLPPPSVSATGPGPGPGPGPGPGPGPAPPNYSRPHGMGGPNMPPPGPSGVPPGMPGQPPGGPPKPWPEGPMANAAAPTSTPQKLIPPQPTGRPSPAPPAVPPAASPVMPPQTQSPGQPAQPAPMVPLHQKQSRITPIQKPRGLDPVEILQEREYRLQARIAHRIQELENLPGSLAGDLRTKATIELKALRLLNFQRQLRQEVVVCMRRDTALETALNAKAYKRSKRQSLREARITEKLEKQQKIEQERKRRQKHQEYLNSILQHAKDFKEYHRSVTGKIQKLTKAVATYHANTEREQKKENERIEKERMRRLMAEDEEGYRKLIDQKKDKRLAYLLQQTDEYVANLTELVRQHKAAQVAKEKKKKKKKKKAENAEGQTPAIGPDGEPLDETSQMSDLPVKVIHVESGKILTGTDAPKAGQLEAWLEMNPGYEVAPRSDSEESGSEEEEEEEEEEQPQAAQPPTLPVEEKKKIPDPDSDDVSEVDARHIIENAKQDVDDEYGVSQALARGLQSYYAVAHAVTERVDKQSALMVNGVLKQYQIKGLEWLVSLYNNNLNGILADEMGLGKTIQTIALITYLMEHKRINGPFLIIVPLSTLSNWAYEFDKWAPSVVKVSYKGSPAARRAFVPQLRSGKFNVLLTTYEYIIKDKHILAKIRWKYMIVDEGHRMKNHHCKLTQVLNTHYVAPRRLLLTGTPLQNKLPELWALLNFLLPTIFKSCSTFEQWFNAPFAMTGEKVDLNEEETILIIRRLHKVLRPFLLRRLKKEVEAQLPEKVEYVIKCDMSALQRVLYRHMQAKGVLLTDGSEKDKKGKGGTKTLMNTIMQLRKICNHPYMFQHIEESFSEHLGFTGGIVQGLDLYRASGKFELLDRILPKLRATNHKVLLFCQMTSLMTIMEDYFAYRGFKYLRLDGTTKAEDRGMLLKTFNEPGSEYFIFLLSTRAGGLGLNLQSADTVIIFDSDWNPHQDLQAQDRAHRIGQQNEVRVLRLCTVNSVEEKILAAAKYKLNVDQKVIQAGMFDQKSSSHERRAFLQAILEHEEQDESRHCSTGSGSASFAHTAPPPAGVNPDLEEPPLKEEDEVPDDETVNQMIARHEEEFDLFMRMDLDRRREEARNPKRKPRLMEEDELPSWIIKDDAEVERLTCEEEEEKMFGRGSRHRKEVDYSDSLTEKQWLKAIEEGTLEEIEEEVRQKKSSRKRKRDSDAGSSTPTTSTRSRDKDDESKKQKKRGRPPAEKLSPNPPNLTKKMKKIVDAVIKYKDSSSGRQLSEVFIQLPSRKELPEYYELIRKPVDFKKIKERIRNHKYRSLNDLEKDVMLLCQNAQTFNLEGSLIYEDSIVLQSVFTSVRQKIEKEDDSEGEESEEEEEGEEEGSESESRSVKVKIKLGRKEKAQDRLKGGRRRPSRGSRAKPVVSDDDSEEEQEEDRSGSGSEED
Assay: ATPase catalytic activity assay of BRG-1 (ADP-Glo)
Assay type: biochemical
Settings: ATPase catalytic activity, ADP-Glo, 30 nM BRG-1, 400 μM ATP; read-out: BRG1 Max % Inhibition
measurementKind: Emax

Record summary for C[C@@H]1CN(c2cccc(-c3csc(NC(=O)CNC(=O)c4ccc5c(c4)[C@@](C)(O)COC5)n3)c2)C[C@H](C)O1 [Compound 437] : reported Emax = > 95%

Record summary for CC1(C#N)CCOc2ccc(C(=O)NCC(=O)Nc3nc(-c4cccc(C5COC5)c4)cs3)cc21 (stereo in doubt) [Compound 423] : reported Emax = > 95%

Record summary for C[C@@H]1CN(c2cccc(-c3csc(NC(=O)CNC(=O)c4cccc([C@H]5COC[C@H]5O)c4)n3)n2)C[C@H](C)O1 (stereo in doubt) [Compound 425] : reported Emax = > 85%

Record summary for C[C@@H]1CN(c2cccc(-c3csc(NC(=O)CNC(=O)c4cccc([C@H]5COC[C@H]5O)c4)n3)c2)C[C@H](C)O1 (relative stereo) [Compound 424] : reported Emax = > 80%

Record summary for C[C@@H]1CN(c2cccc(-c3csc(NC(=O)CNC(=O)c4cccc(C5(C#N)COC5)c4)n3)c2)C[C@H](C)O1 [Compound 418] : reported Emax = > 95%

###

Molecular target: BRG-1 (Homo sapiens)
Experiment: ATPase catalytic activity assay of BRG-1 (ADP-Glo)
Format: biochemical
Settings: ATPase catalytic activity, ADP-Glo; read-out: BRG1 IC50 (μM)*
measurementKind: IC50

Record summary for Cc1cncc(-c2cccc(-c3csc(NC(=O)CNC(=O)c4ccc5c(c4)[C@@](C)(CO)CC5)n3)n2)n1 : reported IC50 = > 5 µM

Record summary for CC(C)S(=O)(=O)c1cccc(C(=O)NCC(=O)Nc2nc(-c3cccc(-c4cc(C#N)cc(C#N)c4)c3)cs2)c1 : reported IC50 = 1 to 5 µM

Record summary for C[C@@]1(F)COCc2ccc(C(=O)NCC(=O)Nc3nc(-c4cc(F)cc(C#N)c4)cs3)cc21 : reported IC50 = 0.1 to 1 µM

Record summary for COc1cc(-c2cccc(-c3csc(NC(=O)CNC(=O)c4cccc(S(=O)(=O)C(C)C)c4)n3)c2)ccn1 : reported IC50 = 0.1 to 1 µM

Record summary for CC(C)(CN)c1cccc(C(=O)NCC(=O)Nc2nc(-c3cccc(-c4ccnc(CO)c4)c3)cs2)c1 : reported IC50 = 0.1 to 1 µM

Record summary for C[C@]1(CO)CCc2ccc(C(=O)NCC(=O)Nc3nc(-c4cccc(-c5cccnc5O)n4)cs3)cc21 : reported IC50 = 0.1 to 1 µM

Record summary for C[C@@H]1CN(c2cccc(-c3csc(NC(=O)CNC(=O)c4cccc(C5(C(F)F)CCCO5)c4)n3)c2)C[C@H](C)O1 (some centres unmarked) : reported IC50 = 1 to 5 µM

Record summary for C[C@@H]1CN(c2cccc(-c3csc(NC(=O)CNC(=O)c4ccc5c(c4)C(C)(O)CCO5)n3)c2)C[C@H](C)O1 (some centres unmarked) : reported IC50 = 1 to 5 µM

Record summary for CCOC(=O)N1CCC[C@H](c2csc(NC(=O)CNC(=O)c3ccc4c(c3)C(C)(F)COC4)n2)C1 (stereo in doubt) : reported IC50 = 0.1 to 1 µM

Record summary for C[C@@H]1CN(c2cccc(-c3csc(NC(=O)CNC(=O)c4ccc(Cl)c(C(C)(C)CO)c4)n3)c2)C[C@H](C)O1 : reported IC50 = 0.1 to 1 µM

Record summary for COc1cc(F)cc(-c2csc(NC(=O)CNC(=O)c3ccc4c(c3)[C@](C)(F)COC4)n2)c1 : reported IC50 = < 0.1 µM

Record summary for C[C@@]1(C#N)COCc2ccc(C(=O)NCC(=O)Nc3nc(-c4cccc(N5CC6(CCO6)C5)c4)cs3)cc21 : reported IC50 = 0.1 to 1 µM

Record summary for COc1cccc(-c2csc(NC(=O)CNC(=O)c3ccc4c(c3)C(C)(C#N)CCN4C)n2)c1 (centres unmarked) : reported IC50 = > 5 µM

Record summary for CC1(CO)CCc2ccc(C(=O)NCC(=O)Nc3nc(-c4ccn5ccnc5c4)cs3)cc21 (stereo in doubt) : reported IC50 = > 5 µM

Record summary for C[C@@H]1CN(c2cccc(-c3csc(NC(=O)CNC(=O)c4cccc([C@]5(F)C[C@@H](O)C5)c4)n3)c2)C[C@H](C)O1 : reported IC50 = 0.1 to 1 µM

Record summary for C[C@@H]1CN(c2cccc(-c3csc(NC(=O)CNC(=O)c4ccc5c(c4)CCCOC5)n3)n2)C[C@H](C)O1 : reported IC50 = < 0.1 µM

Record summary for CCC(C)(O)c1cccc(C(=O)NCC(=O)Nc2nc(-c3cccc(-c4ccncc4)c3)cs2)c1 (single isomer, unassigned) [Compound 81] : reported IC50 = 0.1 to 1 µM

Record summary for COC[C@H](NC(=O)c1cccc(S(=O)(=O)C(C)C)c1)C(=O)Nc1nc(-c2cccc(-c3ccnc(C)c3)c2)cs1 : reported IC50 = 0.1 to 1 µM

Record summary for C[C@@]1(C#N)COCc2ccc(C(=O)NCC(=O)Nc3nc(-c4cccc([C@]56CCOC[C@H]5C6)c4)cs3)cc21 : reported IC50 = 0.1 to 1 µM

Record summary for C[C@@H]1CN(c2cccc(-c3csc(NC(=O)CNC(=O)c4ccc5c(c4)[C@](C)(CO)CN5C)n3)c2)C[C@H](C)O1 : reported IC50 = 1 to 5 µM

Record summary for C[C@@H]1CN(c2cccc(-c3csc(NC(=O)CNC(=O)c4ccc5c(c4)[C@](C)(C#N)CC5)n3)n2)C[C@H](C)O1 : reported IC50 = < 0.1 µM

Record summary for C[C@@H]1CN(c2cccc(-c3csc(NC(=O)CNC(=O)c4ccc5c(c4)[C@H](C#N)CCO5)n3)n2)C[C@H](C)O1 (racemic) : reported IC50 = 1 to 5 µM

Record summary for Cc1cnc(O)c(-c2cccc(-c3csc(NC(=O)CNC(=O)c4ccc5c(c4)[C@](C)(CO)CC5)n3)n2)c1 : reported IC50 = 1 to 5 µM
